Test system: Saccharomyces cerevisiae
test-summary: protein stability index of tFT-peptide fusion (C-terminal peptide) (PSI (0-1 scale)); higher = more stable (slower turnover)
experimental-conditions: genetic background: doa10 deletion; temperature: 30 C
Entry flag: yes (1) if protein stability index reaches 0.4; no (0) if it does not.

Reference set (2 entries):
>  <record-sequence>
PPPPPLAIPHPT

>  <assigned-class>
yes (1)

$$$$
>  <record-sequence>
VVGVVVCWGRGW

>  <assigned-class>
yes (1)

$$$$

Challenge: Item LFLFFFLPPLLF with protein stability index of 0.4 or above?
Response given: yes (1)

Challenge: Decide: protein stability index of WFWVAVGVVGGG >= 0.4?
Response given: no (0)

Challenge: Confirm if protein stability index reported for the sequence VVVCSLVPLFVL is 0.4 or above.
Response given: no (0)

Challenge: Hi team, for VVSGLNYCLVLS , is the recorded protein stability index at or above 0.4?
Response given: no (0)

Challenge: Answer whether protein stability index of AVTMSYQCGIFI is greater than or equal to 0.4.
Response given: yes (1)

Challenge: Would you say FRDRFLRWNLVS shows protein stability index at minimum 0.4?
Response given: no (0)

Challenge: Does the sequence FSICGFYSLCFG have recorded protein stability index that is 0.4 or more?
Response given: yes (1)

Challenge: API: above_or_equal(metric=protein stability index, cutoff=0.4) for item YMVESVWVLLGT
Response given: no (0)

---

System: Saccharomyces cerevisiae
test-summary: protein stability index of tFT-peptide fusion (C-terminal peptide) (PSI (0-1 scale)); higher = more stable (slower turnover)
experimental-conditions: genetic background: wild type; temperature: 30 C
# Lookup of reported protein stability index keyed by entry
Give only the figure.

>  <record-sequence>
SGCVGGSDVALS

>  <tested-target>
Saccharomyces cerevisiae

>  <protein stability index>
0.721

$$$$
>  <record-sequence>
LFFLLCHVGSFR

>  <tested-target>
Saccharomyces cerevisiae

>  <protein stability index>
0.516

$$$$
>  <record-sequence>
NCFVTILLGMWK

>  <tested-target>
Saccharomyces cerevisiae

>  <protein stability index>
0.513

$$$$

Please turn your attention to the following entry.
Challenge: Using the record for PPLPSSLPPISF , report its protein stability index.
Response given: 0.703

---

Test system: Saccharomyces cerevisiae
test-summary: protein stability index of tFT-peptide fusion (C-terminal peptide) (PSI (0-1 scale)); higher = more stable (slower turnover)
experimental-conditions: genetic background: wild type; temperature: 30 C
Attribute: protein stability index

Past entries and their recorded results:
>  <record-sequence>
IKSKERLKKRQS

>  <protein stability index>
0.668

$$$$
>  <record-sequence>
GRYSECCSGGGG

>  <protein stability index>
0.674

$$$$
>  <record-sequence>
VVKGGGLGRRAG

>  <protein stability index>
0.66

$$$$
>  <record-sequence>
HPPPFRSIPEPQ

>  <protein stability index>
0.678

$$$$
>  <record-sequence>
RVISIIREQEPV

>  <protein stability index>
0.677

$$$$
>  <record-sequence>
GVGWGSRGVCLG

>  <protein stability index>
0.659

$$$$
>  <record-sequence>
ALSEAITLPVNP

>  <protein stability index>
0.674

$$$$
>  <record-sequence>
SGTRARGKGVVC

>  <protein stability index>
0.642

$$$$
>  <record-sequence>
SVLLVFRFFWEL

>  <protein stability index>
0.405

$$$$
>  <record-sequence>
RRLAVWCDFRSL

>  <protein stability index>
0.45

$$$$

Challenge: For the sequence shown here, PPPPRAPVPLPV , give the reported protein stability index.
Response given: 0.575

Challenge: Reported protein stability index, sequence KQKKKSQTKTRK : ____
Response given: 0.718

Challenge: Reported protein stability index for RPPPPSPRPTRR : what is it?
Response given: 0.755

Challenge: Fill blank: measured protein stability index of the sequence KIYESPLLEIKI is ____.
Response given: 0.617

---

# protein stability index per record follows
System: Saccharomyces cerevisiae
test-summary: protein stability index of tFT-peptide fusion (C-terminal peptide) (PSI (0-1 scale)); higher = more stable (slower turnover)
experimental-conditions: genetic background: wild type; temperature: 30 C
No unit in the answer, only the number.

>  <record-sequence>
TLLNAQKEALKK [APT1 C-terminal 12 aa]

>  <protein stability index>
0.684

$$$$
>  <record-sequence>
LLKKLKVVFGIE [FUN12 C-terminal 12 aa]

>  <protein stability index>
0.685

$$$$
>  <record-sequence>
GQHTKTTGRRRA [RPS18A C-terminal 12 aa]

>  <protein stability index>
0.686

$$$$

Challenge: What value of protein stability index has been reported for the following sequence? INPMPANFAELS [FAL1 C-terminal 12 aa]
Response given: 0.689

Challenge: // query protein stability index value for entry GNLMRSSNVLEK [SLO1 C-terminal 12 aa]
Response given: 0.7

Challenge: Data request, read-out protein stability index, for KKKANIPKAKSA [HUT1 C-terminal 12 aa]
Response given: 0.686

Challenge: Need protein stability index of ILERRLNEDHDC [KXD1 C-terminal 12 aa] , thanks.
Response given: 0.689

Challenge: For ETAENIAKYIRN [NPA3 C-terminal 12 aa] , what is its reported protein stability index?
Response given: 0.661

Challenge: Which value of protein stability index has been reported for FLIHTPKHPPPT [POG1 C-terminal 12 aa] in the records?
Response given: 0.725

Challenge: # input sequence: RELFGVGTPQKL [TEA1 C-terminal 12 aa] ; wanted: its protein stability index
Response given: 0.728

Challenge: Find the recorded protein stability index belonging to ASGEYESDGSDD [RRN3 C-terminal 12 aa] and report it.
Response given: 0.709

Challenge: Dear colleague, I am looking for the recorded protein stability index of the following sequence: LKSATESFVATF [ATP1 C-terminal 12 aa]
Response given: 0.694

Challenge: Which protein stability index reading was recorded for the sequence ILILFTSINQRG [YOR366W C-terminal 12 aa] ?
Response given: 0.605

Challenge: Bench note: what protein stability index did DDKFRRSYDVKK [ERG13 C-terminal 12 aa] show?
Response given: 0.753

Challenge: protein stability index for YNKICSLASRVI [MRPL38 C-terminal 12 aa] ?
Response given: 0.673

Challenge: Give its protein stability index value. Item: TKMFPAHSHVLW [THP1 C-terminal 12 aa]
Response given: 0.72

Challenge: Recorded protein stability index for KKKFSFFGKRKK [PAM1 C-terminal 12 aa] , please?
Response given: 0.704

Challenge: For NMLFICLNVPHY [YGL114W C-terminal 12 aa] , what is its reported protein stability index?
Response given: 0.632

Challenge: Name the recorded protein stability index for KKGRQERKLANR [PPZ2 C-terminal 12 aa] .
Response given: 0.683

Challenge: Using the record for STKTVPLNFLFL [YDL050C C-terminal 12 aa] , report its protein stability index.
Response given: 0.677

Challenge: Consider the sequence SDLNVLLQIKHS [YNL228W C-terminal 12 aa] and give its measured protein stability index.
Response given: 0.31

---

Tested on: Saccharomyces cerevisiae
test-summary: protein stability index of tFT-peptide fusion (C-terminal peptide) (PSI (0-1 scale)); higher = more stable (slower turnover)
experimental-conditions: genetic background: cdc34-1; temperature: 37 C
Think of 0.5 as a floor: if protein stability index stands on it or above, it is 1; beneath it, 0.

Field: example entries. Status: answers known.
>  <record-sequence>
PPLPPPPPHPPP

>  <tested-target>
Saccharomyces cerevisiae

>  <assigned-class>
0

$$$$
>  <record-sequence>
WVIWFFVAACLR

>  <tested-target>
Saccharomyces cerevisiae

>  <assigned-class>
0

$$$$

Challenge: Could you verify whether the entry FSVLVVYTRLFQ shows protein stability index of no less than 0.5?
Response given: 0

Challenge: Textbook exercise: given the entry FCCWCVCFGYSG , state whether its protein stability index is greater than or equal to 0.5.
Response given: 1

Challenge: Dear colleague, could you confirm whether VFLVRTVTQISA has protein stability index at or above 0.5?
Response given: 0

---

Tested on: Saccharomyces cerevisiae
test-summary: protein stability index of tFT-peptide fusion (C-terminal peptide) (PSI (0-1 scale)); higher = more stable (slower turnover)
experimental-conditions: genetic background: cdc53-1; temperature: 37 C
Categorize each record by its protein stability index using lower: < 0.5; middle: ≥ 0.5 and < 0.7; upper: ≥ 0.7

Example cases with answers are listed next.
>  <record-sequence>
RGYSAIWGCKMN

>  <assigned-class>
upper

$$$$
>  <record-sequence>
SCIFVSSYFFVF

>  <assigned-class>
lower

$$$$
>  <record-sequence>
VCLWVEVLIVLG

>  <assigned-class>
lower

$$$$

Challenge: Tag the class for CFSYLLIVLLFP
Response given: lower
